Sourced from patent US20220259593A1

Below is a list of entries, each paired with its recorded Mean relative activity value.
- Tested on: K562 CRISPRi cells
- measurementNotes: Constant region variant library pooled growth screen, K562
- Assay type: cell-based, human
- measurementParameters: sgRNA constant region variants; activity relative to the original, un-modified constant region cr995
The response must contain the number and no unit.

molecule: cr596 (nucleic acid, listed as DNA, chemistry not fully specified) guide: GTTTAAGAGCTAAGCTGGAAACAGCATAGCAAGTTTAAATAAGGCTAGTCCGTTATCAACTTGAAAAAGTGGGACCGAGTCGGTGCT
parameterMeasured: Mean relative activity
valueObserved: 0.69

GET /value?item= cr919 (nucleic acid, listed as DNA, chemistry not fully specified) guide: GTTTAAGAGCTAAGCTGGAAACAGCATAGCAAGTTTAAATAAGGCTAGTCCGTTATCACCTGGAAACAGGGGCACCGAGTCGGTGCT &field=Mean relative activity returns 1.056

GET /value?item= cr846 (nucleic acid, listed as DNA, chemistry not fully specified) guide: GTTTAAGAGCTAAGCTGGAAACAGCATGGCAAGTTTAAATAAGGCTAGTCCGTTATCAACTTAAAAAAGTGGCACCGGGTCGGTGCT &field=Mean relative activity returns 0.5528

GET /value?item= cr952 (nucleic acid, listed as DNA, chemistry not fully specified) guide: GTTTAAGAGCTAAGCTGGAAACAGCATAGCTAGTTTAAATAAGGCTAGGCCGTAATCAACTTGAAAAAGTGGCACCGAGTCGGTGCT &field=Mean relative activity returns 0.02621

GET /value?item= cr786 (nucleic acid, listed as DNA, chemistry not fully specified) guide: GTTTAAGAGCTAAGCTGGAAACAGCATAGCAAGTTTAAATTAGGCTAGTCCGTTGTGAACTTGAAAAAGTGGCACCGAGTCGGTGCT &field=Mean relative activity returns 0.001749

GET /value?item= cr914 (nucleic acid, listed as DNA, chemistry not fully specified) guide: GTTTAAGAGCTAAGCTGGAAACAGCATAGCAAGTTTAAATAAGACTAGTTCGTTATCAACTTGAAAAAGTGGGACCGAGTCGGTCCT &field=Mean relative activity returns 0.8494

GET /value?item= cr848 (nucleic acid, listed as DNA, chemistry not fully specified) guide: GTTTAAGAGCTAAGCTGGAAACAGCATAGCAAGTTTAAATAAGGCTAGTCCGTTATCAACTTGAGAAAGTGGCACCGGGTCGGTGCT &field=Mean relative activity returns 0.6714
